Experiment notes: in vivo
Test settings: male, SD, rat, po, 1 mg/kg, Plasma concentration
Value kind: concentration at 8 h

Per the record, CCN(Cc1ccccn1)C(=O)Cc1c(-c2ccc(Cl)c(Cl)c2)nc2cc(C)ccn12 [YL-IPA08] has concentration at 8 h of 5.23 ng/mL

---

Experiment notes: Pharmacokinetics in rats with ABT pretreatment (intestinal and hepatic availability)
Test settings: rat, plasma, iv, 0.1 mg/kg, AUC(0-∞), rats, p.o. ABT, i.v. YL-IPA08 (0.1 mg/kg)
Value kind: AUC(0-inf)

Per the record, CCN(Cc1ccccn1)C(=O)Cc1c(-c2ccc(Cl)c(Cl)c2)nc2cc(C)ccn12 [YL-IPA08] has AUC(0-inf) of 126 ng·h/mL
